Items are presented alongside their recorded MIC.
system: M. morgani 1510
API: value field is a number in mg/L; no unit string.

Prompt: Which MIC is reported with M. morgani 1510 for this entry: CC(C)(O/N=C(\C(=O)NC1C(=O)N2C(C(=O)[O-])=C(/C=C/C[n+]3cc4cc(O)c(O)cc4cn3)CS[C@H]12)c1csc(N)n1)C(=O)O (stereo partly drawn) ?
Completion: 0.8

Prompt: Item: Nc1nc(/C(=N/O)C(=O)NC2C(=O)N3C(C(=O)O)=C(/C=C/Cn4cnc5cc(O)c(O)cc54)CS[C@H]23)cs1 (stereo partly drawn) Test system: M. morgani 1510 Read-out: MIC Value: ?
Completion: 25

Prompt: Param readout = MIC; param system = M. morgani 1510; param query = Nc1nc(/C(=N/O)C(=O)NC2C(=O)N3C(C(=O)[O-])=C(/C=C/C[n+]4cc5cc(O)c(O)cc5cn4)CS[C@H]23)cs1 (stereo partly drawn) ; response: value
Completion: 6.3
